# SYSTEM_UNDER_TEST: T1, RSV F glycoprotein (NUF4) (respiratory syncytial virus)
# T1 chain 1: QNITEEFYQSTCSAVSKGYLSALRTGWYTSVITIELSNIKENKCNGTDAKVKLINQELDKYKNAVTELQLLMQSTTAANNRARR
# T1 chain 2: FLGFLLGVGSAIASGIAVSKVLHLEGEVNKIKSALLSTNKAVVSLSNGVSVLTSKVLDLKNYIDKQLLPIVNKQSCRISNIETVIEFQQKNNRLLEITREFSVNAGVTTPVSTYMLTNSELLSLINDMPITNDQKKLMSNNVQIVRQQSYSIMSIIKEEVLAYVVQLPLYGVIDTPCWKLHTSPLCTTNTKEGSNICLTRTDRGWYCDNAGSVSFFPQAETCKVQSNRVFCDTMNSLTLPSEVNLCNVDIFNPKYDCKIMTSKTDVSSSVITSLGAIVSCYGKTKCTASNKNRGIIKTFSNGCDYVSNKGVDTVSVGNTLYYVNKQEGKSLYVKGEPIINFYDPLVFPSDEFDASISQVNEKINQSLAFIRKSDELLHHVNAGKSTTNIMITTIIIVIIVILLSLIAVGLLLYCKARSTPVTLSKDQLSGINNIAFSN
# TEST_DETAILS: SPR (BIAcore), mAb vs NUF4 (2:1)
ENDPOINT_LABEL: log10(koff) (log10 of the value in s⁻¹)

BINDER	ENDPOINT_LABEL	RECORDED_VALUE
A8c7 IgG (antibody, V domains shown) VH: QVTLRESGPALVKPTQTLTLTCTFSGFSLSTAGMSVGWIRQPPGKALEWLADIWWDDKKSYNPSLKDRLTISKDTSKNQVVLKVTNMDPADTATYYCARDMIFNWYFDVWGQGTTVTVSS VL: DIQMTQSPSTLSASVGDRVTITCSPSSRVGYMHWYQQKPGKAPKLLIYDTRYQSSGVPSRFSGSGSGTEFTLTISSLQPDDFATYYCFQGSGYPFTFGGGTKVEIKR	log10(koff)	-2.94
A13c4 IgG (antibody, V domains shown) VH: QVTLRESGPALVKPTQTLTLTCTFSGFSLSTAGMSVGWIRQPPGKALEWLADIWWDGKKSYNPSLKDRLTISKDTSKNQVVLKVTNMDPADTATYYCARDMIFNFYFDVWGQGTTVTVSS VL: DIQMTQSPSTLSASVGDRVTITCSLSSRVGYMHWYQQKPGKAPKLLIYDTMYQSSGVPSRFSGSGSGTEFTLTISSLQPDDFATYYCFQGSGYPFTFGGGTKVEIKR	log10(koff)	-3.65
A12a6 IgG (antibody, V domains shown) VH: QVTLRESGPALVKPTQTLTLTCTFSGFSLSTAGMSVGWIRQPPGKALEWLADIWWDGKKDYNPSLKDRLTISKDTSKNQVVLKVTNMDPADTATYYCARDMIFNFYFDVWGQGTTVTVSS VL: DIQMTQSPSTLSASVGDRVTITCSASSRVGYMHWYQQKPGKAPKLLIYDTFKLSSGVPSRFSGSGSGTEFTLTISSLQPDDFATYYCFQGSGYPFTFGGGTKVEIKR	log10(koff)	-3.39
A1e9 IgG (antibody, V domains shown, also called Ale9) VH: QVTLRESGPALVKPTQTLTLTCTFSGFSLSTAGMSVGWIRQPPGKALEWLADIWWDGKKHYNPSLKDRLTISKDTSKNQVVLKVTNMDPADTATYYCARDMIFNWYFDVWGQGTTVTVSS VL: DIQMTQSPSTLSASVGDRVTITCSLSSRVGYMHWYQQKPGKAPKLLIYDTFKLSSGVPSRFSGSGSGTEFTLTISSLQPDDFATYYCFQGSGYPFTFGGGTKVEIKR	log10(koff)	-2.86
P12f4 IgG (antibody, V domains shown) VH: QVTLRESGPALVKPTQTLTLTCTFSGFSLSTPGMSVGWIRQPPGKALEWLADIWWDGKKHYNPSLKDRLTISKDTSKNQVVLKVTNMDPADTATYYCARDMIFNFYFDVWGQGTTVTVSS VL: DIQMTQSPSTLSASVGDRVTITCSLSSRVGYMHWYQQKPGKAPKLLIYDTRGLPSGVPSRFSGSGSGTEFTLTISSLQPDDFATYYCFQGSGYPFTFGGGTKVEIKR	log10(koff)	-3.20
P11d4 IgG (antibody, V domains shown) VH: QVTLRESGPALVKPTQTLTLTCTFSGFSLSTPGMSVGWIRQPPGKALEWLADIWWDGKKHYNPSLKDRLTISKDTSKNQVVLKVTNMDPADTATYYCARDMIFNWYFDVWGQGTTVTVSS VL: DIQMTQSPSTLSASVGDRVTITCSPSSRVGYMHWYQQKPGKAPKLLIYDTMRLASGVPSRFSGSGSGTEFTLTISSLQPDDFATYYCFQGSGYPFTFGGGTKVEIKR	log10(koff)	-2.50
